Value source: paper doi:10.1101/2025.09.11.675134

The entries below are paired with their reported tissue uptake at 2 h.
measurement.notes: Ex vivo biodistribution screen of 111In-labeled DOTA-TATE derivatives in normal mice
Design: species or system athymic nude mice
measurement.setup: athymic nude, mouse, femur, iv, 1 ug per mouse, total radioactivity, normal athymic nude mice, 2 h post-injection, i.v. 1 μg, ex vivo, mean, n = 2–4, read-out: Femur uptake
Positions of bridges follow the written chain, without caps; N, C: chain ends. Non-standard residues stand in square brackets, D forms with d. Residues, ends and D or L forms follow the SMILES beside them. *: point of attachment. DOTA = O=C(O)CN1CCN(CC(=O)O)CCN(CC(=O)*)CCN(CC(=O)O)CC1
value.type: tissue uptake at 2 h (%ID/g)

>>> reported_measurement("C[C@@H](O)[C@H](NC(=O)[C@@H]1CSSC[C@H](NC(=O)[C@@H](Cc2ccccc2)NC(=O)CNC(=O)[C@H](CC(=O)O)NC(=O)[C@H](CC(=O)O)NC(=O)[C@H](CC(=O)O)NC(=O)CNC(=O)CN2CCN(CC(=O)O)CCN(CC(=O)O)CCN(CC(=O)O)CC2)C(=O)N[C@@H](Cc2ccc(O)cc2)C(=O)N[C@H](Cc2c[nH]c3ccccc23)C(=O)N[C@@H](CCCCN)C(=O)N[C@@H]([C@@H](C)O)C(=O)N1)C(=O)O [^111In-DOTA-GDDDG-TATE, metal not drawn] ({DOTA}-GDDDG[dF]CY[dW]KTCT-OH; disulfide 7-12)")
0.07
>>> reported_measurement("C[C@@H](O)[C@H](NC(=O)[C@@H]1CSSC[C@H](NC(=O)[C@@H](Cc2ccccc2)NC(=O)[C@H](Cc2ccc(O)cc2)NC(=O)CNC(=O)CN2CCN(CC(=O)O)CCN(CC(=O)O)CCN(CC(=O)O)CC2)C(=O)N[C@@H](Cc2ccc(O)cc2)C(=O)N[C@H](Cc2c[nH]c3ccccc23)C(=O)N[C@@H](CCCCN)C(=O)N[C@@H]([C@@H](C)O)C(=O)N1)C(=O)O [^111In-DOTA-GY-TATE, metal not drawn] ({DOTA}-GY[dF]CY[dW]KTCT-OH; disulfide 4-9)")
0.14
>>> reported_measurement("C[C@@H](O)[C@H](NC(=O)[C@@H]1CSSC[C@H](NC(=O)[C@@H](Cc2ccccc2)NC(=O)CCCC(=O)Nc2cc(COC(=O)N(C)CCNC(=O)CN3CCN(CC(=O)O)CCN(CC(=O)O)CCN(CC(=O)O)CC3)ccc2O[C@@H]2O[C@H](C(=O)O)[C@@H](O)[C@H](O)[C@H]2O)C(=O)N[C@@H](Cc2ccc(O)cc2)C(=O)N[C@H](Cc2c[nH]c3ccccc23)C(=O)N[C@@H](CCCCN)C(=O)N[C@@H]([C@@H](C)O)C(=O)N1)C(=O)O [^111In-DOTA-GlcA-TATE, metal not drawn]")
0.1
>>> reported_measurement("CSCC[C@H](NC(=O)CN1CCN(CC(=O)O)CCN(CC(=O)O)CCN(CC(=O)O)CC1)C(=O)N[C@H](C(=O)N[C@@H](CCCCN)C(=O)N[C@H](Cc1ccccc1)C(=O)N[C@H]1CSSC[C@@H](C(=O)N[C@H](C(=O)O)[C@@H](C)O)NC(=O)[C@H]([C@@H](C)O)NC(=O)[C@H](CCCCN)NC(=O)[C@@H](Cc2c[nH]c3ccccc23)NC(=O)[C@H](Cc2ccc(O)cc2)NC1=O)C(C)C [^111In-DOTA-MVK-TATE, metal not drawn] ({DOTA}-MVK[dF]CY[dW]KTCT-OH; disulfide 5-10)")
0.25

====

Parameter tissue uptake at 2 h: see the listing below.
measurement.notes: Ex vivo biodistribution screen of 111In-labeled DOTA-TATE derivatives in normal mice
Parameters: species or system athymic nude mice
measurement.setup: athymic nude, mouse, kidney, iv, 1 ug per mouse, total radioactivity, normal athymic nude mice, 2 h post-injection, i.v. 1 μg, ex vivo, mean (± SD), n = 2–4, read-out: Kidney uptake
Positions of bridges follow the written chain, without caps; N, C: chain ends. Non-standard residues stand in square brackets, D forms with d. Residues, ends and D or L forms follow the SMILES beside them. *: point of attachment. DOTA = O=C(O)CN1CCN(CC(=O)O)CCN(CC(=O)*)CCN(CC(=O)O)CC1
value.type: tissue uptake at 2 h (%ID/g)

>>> reported_measurement("CSCC[C@H](NC(=O)CN1CCN(CC(=O)O)CCN(CC(=O)O)CCN(CC(=O)O)CC1)C(=O)N[C@H](C(=O)N[C@@H](CCCCN)C(=O)N[C@H](Cc1ccccc1)C(=O)N[C@H]1CSSC[C@@H](C(=O)N[C@H](C(=O)O)[C@@H](C)O)NC(=O)[C@H]([C@@H](C)O)NC(=O)[C@H](CCCCN)NC(=O)[C@@H](Cc2c[nH]c3ccccc23)NC(=O)[C@H](Cc2ccc(O)cc2)NC1=O)C(C)C [DOTA-MVK-TATE] ({DOTA}-MVK[dF]CY[dW]KTCT-OH; disulfide 5-10)")
76
>>> reported_measurement("C[C@@H](O)[C@H](NC(=O)[C@@H]1CSSC[C@H](NC(=O)[C@@H](Cc2ccccc2)NC(=O)CCCC(=O)Nc2cc(COC(=O)N(C)CCNC(=O)CN3CCN(CC(=O)O)CCN(CC(=O)O)CCN(CC(=O)O)CC3)ccc2O[C@@H]2O[C@H](C(=O)O)[C@@H](O)[C@H](O)[C@H]2O)C(=O)N[C@@H](Cc2ccc(O)cc2)C(=O)N[C@H](Cc2c[nH]c3ccccc23)C(=O)N[C@@H](CCCCN)C(=O)N[C@@H]([C@@H](C)O)C(=O)N1)C(=O)O [^111In-DOTA-GlcA-TATE, metal not drawn]")
8.88
>>> reported_measurement("C[C@@H](O)[C@H](NC(=O)[C@@H]1CSSC[C@H](NC(=O)[C@@H](Cc2ccccc2)NC(=O)CNC(=O)[C@H](CC(=O)O)NC(=O)[C@H](CC(=O)O)NC(=O)[C@H](CC(=O)O)NC(=O)CNC(=O)CN2CCN(CC(=O)O)CCN(CC(=O)O)CCN(CC(=O)O)CC2)C(=O)N[C@@H](Cc2ccc(O)cc2)C(=O)N[C@H](Cc2c[nH]c3ccccc23)C(=O)N[C@@H](CCCCN)C(=O)N[C@@H]([C@@H](C)O)C(=O)N1)C(=O)O [DOTA-GDDDG-TATE] ({DOTA}-GDDDG[dF]CY[dW]KTCT-OH; disulfide 7-12)")
13
>>> reported_measurement("C[C@@H](O)[C@H](NC(=O)[C@@H]1CSSC[C@H](NC(=O)[C@@H](Cc2ccccc2)NC(=O)CN2CCN(CC(=O)O)CCN(CC(=O)O)CCN(CC(=O)O)CC2)C(=O)N[C@@H](Cc2ccc(O)cc2)C(=O)N[C@H](Cc2c[nH]c3ccccc23)C(=O)N[C@@H](CCCCN)C(=O)N[C@@H]([C@@H](C)O)C(=O)N1)C(=O)O [DOTA-TATE, reference compound]")
6.1

====

measurement.notes: Ex vivo biodistribution screen of 111In-labeled DOTA-TATE derivatives in normal mice
Set-up: species or system athymic nude mice
measurement.setup: athymic nude, mouse, intestine, iv, 1 ug per mouse, total radioactivity, normal athymic nude mice, 2 h post-injection, i.v. 1 μg, ex vivo, mean, n = 2–4, read-out: Intestine uptake
value.type: tissue uptake at 2 h (%ID/g)

>>> reported_measurement("C[C@@H](O)[C@H](NC(=O)[C@@H]1CSSC[C@H](NC(=O)[C@@H](Cc2ccccc2)NC(=O)CCCC(=O)Nc2cc(COC(=O)N(C)CCNC(=O)CN3CCN(CC(=O)O)CCN(CC(=O)O)CCN(CC(=O)O)CC3)ccc2O[C@@H]2O[C@H](C(=O)O)[C@@H](O)[C@H](O)[C@H]2O)C(=O)N[C@@H](Cc2ccc(O)cc2)C(=O)N[C@H](Cc2c[nH]c3ccccc23)C(=O)N[C@@H](CCCCN)C(=O)N[C@@H]([C@@H](C)O)C(=O)N1)C(=O)O [^111In-DOTA-GlcA-TATE, metal not drawn]")
0.44

====

measurement.notes: Ex vivo biodistribution screen of 111In-labeled DOTA-TATE derivatives in normal mice
Parameters: species or system athymic nude mice
measurement.setup: athymic nude, mouse, kidney, iv, 1 ug per mouse, total radioactivity, normal athymic nude mice, 2 h post-injection, i.v. 1 μg, ex vivo, mean (± SD), n = 2–4, read-out: Kidney uptake
Positions of bridges follow the written chain, without caps; N, C: chain ends. Non-standard residues stand in square brackets, D forms with d. Residues, ends and D or L forms follow the SMILES beside them. *: point of attachment. X1 = C[C@H](CCC(=O)*)[C@H]1CC[C@H]2[C@@H]3[C@H](O)C[C@@H]4C[C@@H](NC(=O)CNC(=O)CN5CCN(CC(=O)O)CCN(CC(=O)O)CCN(CC(=O)O)CC5)CC[C@]4(C)[C@H]3C[C@H](O)[C@]12C
In this section we review reported tissue uptake at 2 h values for a set of molecules.
value.type: tissue uptake at 2 h

>>> reported_measurement("CSCC[C@H](NC(=O)CN1CCN(CC(=O)O)CCN(CC(=O)O)CCN(CC(=O)O)CC1)C(=O)N[C@H](C(=O)N[C@@H](CCCCNC(=O)CCCC(=O)N[C@H](Cc1ccccc1)C(=O)N[C@H]1CSSC[C@@H](C(=O)N[C@H](C(=O)O)[C@@H](C)O)NC(=O)[C@H]([C@@H](C)O)NC(=O)[C@H](CCCCN)NC(=O)[C@@H](Cc2c[nH]c3ccccc23)NC(=O)[C@H](Cc2ccc(O)cc2)NC1=O)C(=O)O)C(C)C [DOTA-MVK(ε)-TATE]")
"4 %ID/g"
>>> reported_measurement("C[C@H](CCC(=O)NCC(=O)N[C@H](Cc1ccccc1)C(=O)N[C@H]1CSSC[C@@H](C(=O)N[C@H](C(=O)O)[C@@H](C)O)NC(=O)[C@H]([C@@H](C)O)NC(=O)[C@H](CCCCN)NC(=O)[C@@H](Cc2c[nH]c3ccccc23)NC(=O)[C@H](Cc2ccc(O)cc2)NC1=O)[C@H]1CC[C@H]2[C@@H]3[C@H](O)C[C@@H]4C[C@@H](NC(=O)CNC(=O)CN5CCN(CC(=O)O)CCN(CC(=O)O)CCN(CC(=O)O)CC5)CC[C@]4(C)[C@H]3C[C@H](O)[C@]12C [DOTA-G-Chol-G-TATE] (X1-G[dF]CY[dW]KTCT-OH; disulfide 3-8)")
"9.6 %ID/g"
